The binders listed here are annotated with their IC50 (nM) Ca2+ assay (method 2).
Target: human CXCR4 (human, UniProt P61073 1-352)
Sequence (P61073 whole entry): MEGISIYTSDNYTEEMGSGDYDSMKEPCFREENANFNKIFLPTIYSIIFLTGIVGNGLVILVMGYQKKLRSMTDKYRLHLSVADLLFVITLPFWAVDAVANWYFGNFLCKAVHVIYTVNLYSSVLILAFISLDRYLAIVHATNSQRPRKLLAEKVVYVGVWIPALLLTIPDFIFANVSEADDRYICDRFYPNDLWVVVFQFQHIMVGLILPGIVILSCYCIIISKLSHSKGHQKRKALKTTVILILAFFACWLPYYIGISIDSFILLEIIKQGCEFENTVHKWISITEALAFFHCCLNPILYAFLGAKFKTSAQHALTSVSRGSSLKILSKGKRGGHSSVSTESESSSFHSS
Experiment: cell-based or functional assay
Bridges are numbered along the chain shown (N, C = ends). [ ]: non-standard residue; d: D form. 2Nal = N[C@@H](Cc1ccc2ccccc2c1)C(=O)O; Cit = NC(=O)NCCC[C@H](N)C(=O)O
Enter your answer as a number in nM; do not include the unit.

binder	IC50 (nM) Ca2+ assay (method 2)
cyclo(LR[Cit]CRG[dP]RR[2Nal]CYQK[dP]P) (disulfide 4-11; SMILES CC(C)C[C@@H]1NC(=O)[C@@H]2CCCN2C(=O)[C@H]2CCCN2C(=O)[C@H](CCCCN)NC(=O)[C@H](CCC(N)=O)NC(=O)[C@H](Cc2ccc(O)cc2)NC(=O)[C@@H]2CSSC[C@H](NC(=O)[C@H](CCCNC(N)=O)NC(=O)[C@H](CCCNC(=N)N)NC1=O)C(=O)N[C@@H](CCCNC(=N)N)C(=O)NCC(=O)N1CCC[C@@H]1C(=O)N[C@@H](CCCNC(=N)N)C(=O)N[C@@H](CCCNC(=N)N)C(=O)N[C@@H](Cc1ccc3ccccc3c1)C(=O)N2) [Example 144]	0.18

Turning now to a further record.
Which IC50 (nM) Ca2+ assay (method 2) is reported for this binder? cyclo(YR[Cit]CRG[dP]RR[2Nal]CYQN[dP]P) (disulfide 4-11; SMILES N=C(N)NCCC[C@@H]1NC(=O)[C@@H]2CSSC[C@H](NC(=O)[C@H](Cc3ccc4ccccc4c3)NC(=O)[C@H](CCCNC(=N)N)NC(=O)[C@H](CCCNC(=N)N)NC(=O)[C@H]3CCCN3C(=O)CNC1=O)C(=O)N[C@@H](Cc1ccc(O)cc1)C(=O)N[C@@H](CCC(N)=O)C(=O)N[C@@H](CC(N)=O)C(=O)N1CCC[C@@H]1C(=O)N1CCC[C@H]1C(=O)N[C@@H](Cc1ccc(O)cc1)C(=O)N[C@@H](CCCNC(=N)N)C(=O)N[C@@H](CCCNC(N)=O)C(=O)N2) [Example 84]
3.9
